tested_system: BsCspB (cold shock protein B) (UniProt P32081 1-67)
Sequence (P32081 whole entry): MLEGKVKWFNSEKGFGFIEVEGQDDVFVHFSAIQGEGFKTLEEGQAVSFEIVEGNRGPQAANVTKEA
test: intrinsic Trp fluorescence quenching; 300 g/L Dex20 (series a); 20 mM disodium phosphate pH 7.0, no added salt stated; fluorescence titration 298 K (0.5, 2.8 or 4 uM protein; table marks a/b not explained in the material); stopped-flow 288 K (60 or 300 nM protein); NMR 298 or 294.4 K with 5% D2O
cond: protein: recombinant; single strand
pKd: −log10 of the molar value.

{"binder": "TTTTTTT (ssDNA) [dT7]", "pKd": 8.30}

Where do these numbers come from? They come from paper PMC8417293.
